B1: TPR 5TU (parent)
chain: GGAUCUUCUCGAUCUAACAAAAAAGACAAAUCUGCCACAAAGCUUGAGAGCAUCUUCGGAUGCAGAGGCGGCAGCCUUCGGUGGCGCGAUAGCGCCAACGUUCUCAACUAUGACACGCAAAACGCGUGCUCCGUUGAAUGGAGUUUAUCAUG

variants of: B1; assay: polymerase ribozyme fitness, log enrichment relative to wild type (log ratio); higher = more active; in vitro selection for triplet polymerase activity
Variants at the floor of the assay were thinned out.
readout type: polymerase ribozyme fitness (log ratio)

Prompt: Specify reported polymerase ribozyme fitness (log ratio) for the variant shown: A26G A39G G42C A49G U55A U56A U130A U135G
Response: ≤ -4.2

Prompt: Specify reported polymerase ribozyme fitness (log ratio) for the variant shown: C27G G67C C85A
Response: ≤ -4.2

Prompt: Specify reported polymerase ribozyme fitness (log ratio) for the variant shown: U44G A49C C93U C125U A150U
Response: ≤ -4.2

Prompt: Specify reported polymerase ribozyme fitness (log ratio) for the variant shown: C51G U56A G68A C93U A97G U104G G143A U146A
Response: ≤ -4.2

Prompt: Specify reported polymerase ribozyme fitness (log ratio) for the variant shown: U4A A22C G48U C75G G84A
Response: ≤ -4.2

Prompt: Specify reported polymerase ribozyme fitness (log ratio) for the variant shown: U4A C36A A52C A73G C95U
Response: ≤ -4.2

Prompt: Specify reported polymerase ribozyme fitness (log ratio) for the variant shown: A23C G67A A73U C96U G140C
Response: ≤ -4.2

Prompt: Specify reported polymerase ribozyme fitness (log ratio) for the variant shown: A3G C18U A49C C57U C85G G143U
Response: ≤ -4.2

Prompt: Specify reported polymerase ribozyme fitness (log ratio) for the variant shown: C36A G48A C93U A113U C118G U144G A150U
Response: ≤ -4.2

Prompt: Specify reported polymerase ribozyme fitness (log ratio) for the variant shown: C54A A91U U109C G140U U146C
Response: ≤ -4.2

Prompt: Specify reported polymerase ribozyme fitness (log ratio) for the variant shown: A3U G59A C99U U144C A150G
Response: ≤ -4.2

Prompt: Specify reported polymerase ribozyme fitness (log ratio) for the variant shown: A16U U61A C93U G140A G143U U148G
Response: ≤ -4.2

Prompt: Specify reported polymerase ribozyme fitness (log ratio) for the variant shown: U33C A37G C63A C87G U111G U151A
Response: ≤ -4.2

Prompt: Specify reported polymerase ribozyme fitness (log ratio) for the variant shown: A17C U55A G68A A73G C85U U127A G141U
Response: ≤ -4.2

Prompt: Specify reported polymerase ribozyme fitness (log ratio) for the variant shown: A41U G71A G83C G84U U145C A147U
Response: ≤ -4.2

Prompt: Specify reported polymerase ribozyme fitness (log ratio) for the variant shown: U31A G58C G74C U139C U146A
Response: ≤ -4.2

Prompt: Specify reported polymerase ribozyme fitness (log ratio) for the variant shown: A24U C79U U102G C118U A119G G140A
Response: ≤ -4.2

Prompt: Specify reported polymerase ribozyme fitness (log ratio) for the variant shown: C51A A52C A64C C95U U101C A121C G133C U135G
Response: ≤ -4.2

Prompt: Specify reported polymerase ribozyme fitness (log ratio) for the variant shown: A47C U56G A91U C96G C118U A122C C131U U139C U148A
Response: ≤ -4.2

Prompt: Specify reported polymerase ribozyme fitness (log ratio) for the variant shown: A3G A12C A37C G48A A49C U78G G86A C87G C99U A142C U146G
Response: ≤ -4.2

Prompt: Specify reported polymerase ribozyme fitness (log ratio) for the variant shown: G68A C87A A107G G117U C132G
Response: ≤ -4.2

Prompt: Specify reported polymerase ribozyme fitness (log ratio) for the variant shown: G50U C72A A89C G92A C129A A137G A150U
Response: ≤ -4.2

Prompt: Specify reported polymerase ribozyme fitness (log ratio) for the variant shown: C32U A37U U56C C95U U145G U148G
Response: ≤ -4.2

Prompt: Specify reported polymerase ribozyme fitness (log ratio) for the variant shown: G74A G84A A107G
Response: ≤ -4.2

Prompt: Specify reported polymerase ribozyme fitness (log ratio) for the variant shown: G88A U101G U102G A138U U139G
Response: ≤ -4.2

Prompt: Specify reported polymerase ribozyme fitness (log ratio) for the variant shown: A21G G46C U82G G88U C95G A98C
Response: ≤ -4.2

Prompt: Specify reported polymerase ribozyme fitness (log ratio) for the variant shown: U55A A91U G136A
Response: ≤ -4.2

Prompt: Specify reported polymerase ribozyme fitness (log ratio) for the variant shown: A26G C35G C57A G81C C87G
Response: ≤ -4.2

Prompt: Specify reported polymerase ribozyme fitness (log ratio) for the variant shown: C99A A120C U148G
Response: ≤ -4.2

Prompt: Specify reported polymerase ribozyme fitness (log ratio) for the variant shown: A23U U53G
Response: ≤ -4.2

Prompt: Specify reported polymerase ribozyme fitness (log ratio) for the variant shown: C5G C38G G68C U135A G141A
Response: ≤ -4.2

Prompt: Specify reported polymerase ribozyme fitness (log ratio) for the variant shown: G11A C14U U61A G80C C85G C96U A98G C108A
Response: ≤ -4.2

Prompt: Specify reported polymerase ribozyme fitness (log ratio) for the variant shown: A12G A41C A66G C79U G86C C103A C105A A107G
Response: ≤ -4.2

Prompt: Specify reported polymerase ribozyme fitness (log ratio) for the variant shown: C27G G84A G136U
Response: ≤ -4.2

Prompt: Specify reported polymerase ribozyme fitness (log ratio) for the variant shown: C10G A20C C36A U53A U134A A142U
Response: ≤ -4.2

Prompt: Specify reported polymerase ribozyme fitness (log ratio) for the variant shown: C54G C75G C87A
Response: ≤ -4.2

Prompt: Specify reported polymerase ribozyme fitness (log ratio) for the variant shown: U55G A60G G133U G136C
Response: ≤ -4.2

Prompt: Specify reported polymerase ribozyme fitness (log ratio) for the variant shown: A73G G92A C132U G141C
Response: ≤ -4.2

Prompt: Specify reported polymerase ribozyme fitness (log ratio) for the variant shown: A22U C35A U55A U56G G74A C85G
Response: ≤ -4.2

Prompt: Specify reported polymerase ribozyme fitness (log ratio) for the variant shown: A23C A26U U53A C85A G136U
Response: ≤ -4.2

Prompt: Specify reported polymerase ribozyme fitness (log ratio) for the variant shown: A40U C95U G124C G133U
Response: ≤ -4.2

Prompt: Specify reported polymerase ribozyme fitness (log ratio) for the variant shown: C18U C32U A37C C54A C69A G70U A97U A138C C149A
Response: ≤ -4.2

Prompt: Specify reported polymerase ribozyme fitness (log ratio) for the variant shown: A40C U61A A91G A97U G141U
Response: ≤ -4.2

Prompt: Specify reported polymerase ribozyme fitness (log ratio) for the variant shown: A22C G84C G133U
Response: ≤ -4.2

Prompt: Specify reported polymerase ribozyme fitness (log ratio) for the variant shown: G67C U101A G141U A150U G152U
Response: ≤ -4.2
